B1: KLHL13 (parent)
chain: TGEFLKLPFERLAFVLSSNSLKHC

Variants of: B1
Experiment: protein stability index of a GFP-peptide fusion (GPS, HEK-293T) (PSI 1-6); higher = more stable;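 note: lentivirally expressed fusions sorted by FACS into six bins by GFP to DsRed ratio, PSI derived from sequencing read proportions per bin multiplied by bin number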
Conditions: c terminus: a fixed tail appended
The threshold is inclusive: protein stability index of exactly 3 counts as class 1; values below receive class 0.

Record excerpt, results attached:
residue_string="TGEFLKLPFERLAFVLSSNSLKMC [H23M]" class_label="class 0"
residue_string="TGEFLKLPFERLAFVLSSNSLKYC [H23Y]" class_label="class 1"
residue_string="TGEFLKLYFERLAFVLSSNSLKHC [P8Y]" class_label="class 1"
residue_string="TGEKLKLPFERLAFVLSSNSLKHC [F4K]" class_label="class 0"

## Task Tell me whether protein stability index is at least 3 here: TGEFLKLPFERLRFVLSSNSLKHC [A13R]
## Result class 0

## Task // inclusive: protein stability index at least 3? input: TGEFLKLPFERLAFVLSSNSLKKC [H23K]
## Result class 0

## Task Quick check: does TGEFLKLPFERLAFSLSSNSLKHC [V15S] have protein stability index greater than or equal to 3?
## Result class 0

## Task Entry TGEFLKLPFERKAFVLSSNSLKHC [L12K] : is its protein stability index no less than 3?
## Result class 0

## Task Does the reported protein stability index for TGEFLKLPFERLAFVLSSNSIKHC [L21I] fall at or above the 3 mark?
## Result class 1

## Task Identify whether the reported protein stability index of the following variant is 3 or greater: TGEFLKLPFERLAFVLSANSLKHC [S18A]
## Result class 0

## Task Determine whether this variant has protein stability index no lower than 3: TGEFLKLPFERLAFVLSSNSLKHM [C24M]
## Result class 0

## Task Reported protein stability index reaches at least 3 for TGEFLKLPKERLAFVLSSNSLKHC [F9K] ?
## Result class 0

## Task Say whether LGEFLKLPFERLAFVLSSNSLKHC [T1L] shows protein stability index of 3 or more.
## Result class 1

## Task In plain terms: is recorded protein stability index at least 3 for TGEFLKLPTERLAFVLSSNSLKHC [F9T] ?
## Result class 0

## Task Tell me whether protein stability index is at least 3 here: TGEFLKLPFERLAFVLSSNRLKHC [S20R]
## Result class 0

The measured values listed here are drawn from the supplement of paper PMC10567573.
